experiment: Circular dichroism (CD) analysis of alpha-helicity; format: physicochemical; details: benign buffer
Where a SMILES comes first, the peptide text is derived from it. Bridges are numbered along the chain shown (N, C = ends). [ ]: non-standard residue; d: D form. R8 = C=CCCCCCC[C@@](C)(N)C(=O)O; S5 = C=CCCC[C@](C)(N)C(=O)O; Nle = CCCC[C@H](N)C(=O)O
observation type: % Helix benign compared to 50% TFE parent (CD) (%)
Note: unit % is implicit; provide only the numeric part.

Check out these entries, answers already filled in.
CC(=O)N[C@@H](CC(C)C)C(=O)N[C@H](C(=O)N[C@@H](Cc1ccccc1)C(=O)N[C@]1(C)CCCCCCC=CCCC[C@@](C)(C(=O)N[C@@H](C)C(=O)N[C@@H](C)C(=O)N[C@@H](C)C(=O)N[C@H](C)C(N)=O)NC(=O)[C@H](CC(C)C)NC(=O)[C@H](CCC(N)=O)NC(=O)[C@H](C)NC(=O)[C@H](Cc2c[nH]c3ccccc23)NC(=O)[C@H](Cc2ccc(O)cc2)NC(=O)[C@H](C)NC1=O)[C@@H](C)O (single isomer, unassigned) [compound 230] | 1.5
CC(=O)N[C@@H](CC(C)C)C(=O)N[C@H](C(=O)N[C@@H](Cc1ccccc1)C(=O)N[C@]1(C)CCCCCCC=CCCC[C@@](C)(C(=O)N[C@@H](C)C(=O)N[C@@H](C)C(=O)N[C@@H](C)C(=O)N[C@@H](C)C(=O)N[C@H](C)C(N)=O)NC(=O)[C@H](CC(C)C)NC(=O)[C@H](CCC(N)=O)NC(=O)[C@H](C)NC(=O)[C@H](Cc2c[nH]c3ccccc23)NC(=O)[C@H](Cc2ccc(O)cc2)NC(=O)[C@H](C)NC1=O)[C@@H](C)O [compound 233] | 3.3
CC[C@H](C)[C@H](NC(=O)[C@H](C)NC(=O)[C@H](C)NC(=O)[C@]1(C)CCC/C=C/CCCCCC[C@@](C)(NC(=O)[C@H](Cc2ccccc2)NC(=O)[C@@H](NC(=O)[C@H](CC(C)C)NC(C)=O)[C@@H](C)O)C(=O)N[C@@H](C)C(=O)N[C@@H](Cc2ccc(O)cc2)C(=O)N[C@@H](Cc2c[nH]c3ccccc23)C(=O)N[C@@H](C)C(=O)N[C@@H](CCC(N)=O)C(=O)N[C@@H](CC(C)C)C(=O)N1)C(=O)N[C@H](C)C(N)=O [compound 71] | 0.8
CC(=O)N[C@@H](CC(C)C)C(=O)N[C@H](C(=O)N[C@@H](Cc1ccccc1)C(=O)N[C@]1(C)CCCCCCC=CCCC[C@@](C)(C(=O)N[C@@H](CO)C(=O)N[C@@H](C)C(=O)N[C@@H](Cc2ccccc2)C(N)=O)NC(=O)[C@H](CC(C)C)NC(=O)[C@H](CCC(N)=O)NC(=O)[C@H](C)NC(=O)[C@H](Cc2c[nH]c3ccccc23)NC(=O)[C@H](Cc2ccc(O)cc2)NC(=O)[C@H](C)NC1=O)[C@@H](C)O [compound 7] (Ac-LTF[R8]AYWAQL[S5]SAF-NH2; staple 4-11) | −0.9
CC(=O)N[C@@H](CC(C)C)C(=O)N[C@H](C(=O)N[C@@H](Cc1ccccc1)C(=O)N[C@]1(C)CCCCCCC=CCCC[C@@](C)(C(=O)N[C@@H](Cc2c[nH]cn2)C(=O)N[C@@H](Cc2c[nH]cn2)C(=O)N[C@@H](CC(C)C)C(=O)N[C@H](C)C(N)=O)NC(=O)[C@H](CC(C)C)NC(=O)[C@H](CCC(N)=O)NC(=O)[C@H](C)NC(=O)[C@H](Cc2c[nH]c3ccccc23)NC(=O)[C@H](Cc2ccc(O)cc2)NC(=O)[C@H](C)NC1=O)[C@@H](C)O [compound 43] (Ac-LTF[R8]AYWAQL[S5]HHL[dA]-NH2; staple 4-11) | 97.8
CCCC[C@H](NC(=O)[C@H](CCC(N)=O)NC(=O)[C@H](CCC(N)=O)NC(=O)[C@]1(C)CCCC=CCCCCCC[C@@](C)(NC(=O)[C@H](Cc2ccccc2)NC(C)=O)C(=O)N[C@@H](C)C(=O)N[C@@H](Cc2ccc(O)cc2)C(=O)N[C@@H](Cc2c[nH]c3ccccc23)C(=O)N[C@@H]([C@@H](C)O)C(=O)N[C@@H](C)C(=O)N[C@@H](CC(C)C)C(=O)N1)C(=O)N[C@@H](C(N)=O)C(C)C [compound 41] (Ac-F[R8]AYWTAL[S5]QQ[Nle][dV]-NH2; staple 2-9) | 5.8
CC(=O)N[C@@H](CC(C)C)C(=O)N[C@H](C(=O)N[C@@H](Cc1ccccc1)C(=O)N[C@]1(C)CCCCCCC=CCCC[C@@](C)(C(=O)N[C@@H](CO)C(=O)N[C@@H](C)C(=O)N[C@@H](C)C(N)=O)NC(=O)[C@H](CC(C)C)NC(=O)[C@H](CCC(N)=O)NC(=O)[C@H](C)NC(=O)[C@H](Cc2c[nH]c3ccccc23)NC(=O)[C@H](Cc2ccc(O)cc2)NC(=O)[C@H](C)NC1=O)[C@@H](C)O [compound 11] | 2.5

Alright, here's another compound for you.
Challenge: Data request, read-out % Helix benign compared to 50% TFE parent (CD), for CCCC[C@H](NC(=O)[C@H](C)NC(=O)[C@H](C)NC(=O)[C@]1(C)CCC/C=C/CCCCCC[C@@](C)(NC(=O)[C@H](Cc2ccccc2)NC(=O)[C@@H](NC(=O)[C@H](CC(C)C)NC(C)=O)[C@@H](C)O)C(=O)N[C@@H](C)C(=O)N[C@@H](Cc2ccc(O)cc2)C(=O)N[C@@H](Cc2c[nH]c3ccccc23)C(=O)N[C@@H](C)C(=O)N[C@@H](CCC(N)=O)C(=O)N[C@@H](CC(C)C)C(=O)N1)C(=O)N[C@@H](C)C(N)=O [compound 69]
Response given: 0.7

###

biological target: MDMX (Homo sapiens); test: Competitive fluorescence polarization assay for MDMX; format: binding; details: competitive FP assay, read-out: IC50 (MDMX)
Sequence (O15151 1-125): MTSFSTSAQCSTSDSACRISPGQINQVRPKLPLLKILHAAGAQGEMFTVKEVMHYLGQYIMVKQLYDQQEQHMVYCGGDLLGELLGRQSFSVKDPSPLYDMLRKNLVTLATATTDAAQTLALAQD
pIC50: −log10 of the molar value.
Listed here are compounds together with their documented pIC50.

CCCCCC(=O)N[C@@H](CC(C)C)C(=O)N[C@H](C(=O)N[C@@H](Cc1ccccc1)C(=O)N[C@]1(C)CCCCCCC=CCCC[C@@](C)(C(=O)N[C@@H](CO)C(=O)N[C@@H](C)C(=O)N[C@@H](C)C(N)=O)NC(=O)[C@H](CCC(C)C)NC(=O)[C@H](CCC(N)=O)NC(=O)[C@H](C)NC(=O)[C@H](Cc2c[nH]c3ccccc23)NC(=O)[C@H](Cc2ccc(O)cc2)NC(=O)[C@H](CCC(=O)O)NC1=O)[C@@H](C)O | 6.00 to 7.00

Alright, here's another compound for you.
Challenge: Data request, read-out pIC50, for CCCC[C@H](NC(=O)[C@H](C)NC(=O)[C@H](C)NC(=O)[C@]1(C)CCCC=CCCCCCC[C@@](C)(NC(=O)[C@H](Cc2ccccc2)NC(=O)[C@@H](NC(=O)[C@H](CC(C)C)NC(C)=O)[C@@H](C)O)C(=O)N[C@@H](C)C(=O)N[C@@H](Cc2ccc(O)cc2)C(=O)N[C@@H](Cc2c[nH]c3ccccc23)C(=O)N[C@@H](C)C(=O)N[C@@H](CCC(N)=O)C(=O)N[C@@H](CC(C)C)C(=O)N1)C(=O)N[C@@H](C)C(=O)N(C)CC(N)=O (single isomer, unassigned)
Response given: > 8.00

###

system: SJSA-1 cells; assay: Cell lysis by peptidomimetic macrocycles (LDH release); format: cell-based; settings: 6.25 uM, 1 h at 37C
Where a SMILES comes first, the peptide text is derived from it. Bridges are numbered along the chain shown (N, C = ends). [ ]: non-standard residue; d: D form. R8 = C=CCCCCCC[C@@](C)(N)C(=O)O; S5 = C=CCCC[C@](C)(N)C(=O)O
observation type: 6.25 uM % Lysed cells (1 h LDH) (%)
Note: unit % is implicit; provide only the numeric part.

Challenge: Data request, read-out 6.25 uM % Lysed cells (1 h LDH), for CC(=O)N[C@@H](CC(C)C)C(=O)N[C@H](C(=O)N[C@@H](Cc1ccc(F)c(F)c1)C(=O)N[C@]1(C)CCCCCCC=CCCC[C@@](C)(C(=O)N[C@@H](CO)C(=O)N[C@@H](C)C(=O)N[C@@H](C)C(N)=O)NC(=O)[C@H](CC(C)C)NC(=O)[C@H](CCC(N)=O)NC(=O)[C@H](C)NC(=O)[C@H](Cc2c[nH]c3ccccc23)NC(=O)[C@H](Cc2ccc(O)cc2)NC(=O)[C@H](CCC(=O)O)NC1=O)[C@@H](C)O (single isomer, unassigned)
Response given: 0

Challenge: Next up: CC(=O)N[C@@H](CCC(=O)O)C(=O)N[C@H](C(=O)N[C@@H](Cc1ccccc1)C(=O)N[C@]1(C)CCCCCCC=CCCC[C@@](C)(C(=O)N[C@@H](CO)C(=O)N[C@@H](C)C(=O)N[C@@H](C)C(N)=O)NC(=O)[C@H](CC(C)C)NC(=O)[C@H](CCC(N)=O)NC(=O)[C@H](C)NC(=O)[C@H](Cc2c[nH]c3ccccc23)NC(=O)[C@H](Cc2ccc(O)cc2)NC(=O)[C@H](C(C)C)NC1=O)[C@@H](C)O [compound 125] (Ac-ETF[R8]VYWAQL[S5]SAA-NH2; staple 4-11)
Response given: 0
